Test system: Alkaline phosphatase
assay-details: Chemiluminescence half-life of dephosphorylated dioxetane
Assay type: biochemical
experimental-parameters: 0.004 mM dioxetane, 30° C., 0.1M diethanolamine, 1 mM MgCl2, pH 10; alkaline phosphatase 1.05×10^-9 M; no enhancer
Examples of compounds with documented T1/2 (chemiluminescence half-life) follow.
Quick reminder: number only, in min, skip the unit.

Please review the following examples before continuing.
O=P(O)(O)Oc1cc(C2(OCC(F)(F)F)OOC23C2CC4CC(C2)CC3C4)ccc1Cl (centres unmarked) = 2.0
COC1(c2ccc(Cl)c(OP(=O)(O)O)c2)OOC12C1CC3CC(C1)CC2C3 (centres unmarked) = 2.7
O=P(O)(O)Oc1cccc(C2(OCC(F)(F)F)OOC23C2CC4CC(C2)CC3C4)c1 (centres unmarked) = 0.9
COC1(c2ccc(Cl)c(OP(=O)(O)O)c2)OOC12C1CC3CC2CC(Cl)(C3)C1 (centres unmarked) = 1.2

Item: COC1(c2cccc(OP(=O)(O)O)c2)OOC12C1CC3CC2CC(Cl)(C3)C1 (centres unmarked) | T1/2 (chemiluminescence half-life): 0.6
